Experiment: Binding affinity to 5'-FAM/3'-TAMRA labeled F21T 21-mer G-quadruplex DNA (unknown origin) assessed as change in melting temperature at 4 uM after 12 hrs by TR-FRET assay
quantity_name: ΔTm

Illustrative cases are given below, each with its answer.
1) N=C(N)c1ccc(/N=N/Nc2ccccc2)cc1 = < 5 °C
2) N=C(N)c1ccc(/N=N/Nc2ccncc2)cc1 = < 5 °C
3) N=C(N)c1ccc(/N=N/Nc2ccc(C(=N)N)cc2)cc1 [DIMINAZENE] = 16.6 °C
4) N=C(N)c1ccc(/N=N/Nc2cccc(C#Cc3ccccc3)c2)cc1 = < 5 °C
5) N#Cc1ccc(N/N=N/c2ccc(C(=N)N)cc2)cc1 = 5.1 °C
6) C#Cc1ccccc1N/N=N/c1ccc(C(=N)N)cc1 = < 5 °C

Retrieve ΔTm measured for N=C(N)c1ccc(/N=N/Nc2ccccc2C#Cc2ccc(F)cc2)cc1 and print it. < 5 °C

Output measured ΔTm for this item: N#Cc1cccc(N/N=N/c2ccc(C(=N)N)cc2)c1 < 5 °C

Give me measured ΔTm, please, for this compound: N=C(N)c1ccc(/N=N/Nc2cccc(C#Cc3ccccn3)c2)cc1 7.3 °C

Give recorded ΔTm. N=C(N)c1ccc(/N=N/Nc2cccc(-c3ccccc3)c2)cc1 < 5 °C

Please indicate ΔTm recorded for COc1ccc(C#Cc2cccc(N/N=N/c3ccc(C(=N)N)cc3)c2)cc1 < 5 °C

====

Test: Binding affinity to wild type c-MYC 24-mer G-quadruplex DNA (unknown origin) by isothermal titration calorimetry
quantity_name: Kd
# number then unit; no other words

Given the compound N=C(N)c1ccc(/N=N/Nc2ccc(C(=N)N)cc2)cc1 [DIMINAZENE] , write its reported Kd. 1 nM

====

Assay: Antiproliferative activity against human bone marrow cells assessed as cell viability at 20 uM after 72 hrs by WST-1 assay relative to control
Type: cell-based
Settings: read-out: Activity
quantity_name: viability at 72 h, 20 µM

Using the record for N=C(N)c1ccc(/N=N/Nc2ccccc2C#Cc2ccc(F)cc2)cc1 , state its measured viability at 72 h, 20 µM. ≥ 75%

====

Reported ΔTm values for the following compounds.
Assay: Binding affinity to 5'-FAM/3'-TAMRA labeled c-kit2 26-mer G-quadruplex DNA (unknown origin) assessed as change in melting temperature at 4 uM after 12 hrs by TR-FRET assay
Numeric only. Scale: °C

Worked set:
1) N#Cc1ccc(N/N=N/c2ccc(C(=N)N)cc2)cc1 = 5.3
2) C#Cc1ccc(N/N=N/c2ccc(C(=N)N)cc2)cc1 = 5.3
3) N=C(N)c1ccc(/N=N/Nc2cccc(C#Cc3ccccc3)c2)cc1 = 6.4
4) N=C(N)c1ccc(/N=N/Nc2ccc(C(=N)N)cc2)cc1 = 11.7
5) N=C(N)c1ccc(/N=N/Nc2ccccc2C#Cc2ccccc2)cc1 = 5.12

Provide ΔTm value for the following compound: N=C(N)c1ccc(/N=N/Nc2ccccc2)cc1 6.4

Quote ΔTm reported for N=C(N)c1ccc(/N=N/Nc2cccc(C#Cc3ccccn3)c2)cc1 please. 8.04

Assign ΔTm to the following record: N=C(N)c1ccc(/N=N/Nc2cccc(C#Cc3ccc(F)cc3)c2)cc1 5.67

Please list ΔTm recorded for the compound N#Cc1cccc(N/N=N/c2ccc(C(=N)N)cc2)c1 6.22

Supply ΔTm value. Item: COc1ccc(C#Cc2cccc(N/N=N/c3ccc(C(=N)N)cc3)c2)cc1 5.48

Given C#Cc1cccc(N/N=N/c2ccc(C(=N)N)cc2)c1 , respond with its ΔTm. 5.48

# return recorded ΔTm for input N=C(N)c1ccc(/N=N/Nc2ccncc2)cc1 6.58

Identify ΔTm associated with the compound N=C(N)c1ccc(/N=N/Nc2ccccc2C#Cc2ccc(F)cc2)cc1 5.12

Tell me ΔTm reported for C#Cc1ccccc1N/N=N/c1ccc(C(=N)N)cc1 7.68

Supply recorded ΔTm for N=C(N)c1ccc(/N=N/Nc2cccc(-c3ccccc3)c2)cc1 here. 5.48

====

Experiment: Binding affinity to 5'-FAM/3'-TAMRA labeled 26-mer duplex DNA (unknown origin) assessed as change in melting temperature at 4 uM after 12 hrs by TR-FRET assay
Reported ΔTm by item:

1) C#Cc1cccc(N/N=N/c2ccc(C(=N)N)cc2)c1 = < 5 °C
2) C[n+]1ccc(-c2c3nc(c(-c4cc[n+](C)cc4)c4ccc([nH]4)c(-c4cc[n+](C)cc4)c4ccc([nH]4)c(-c4cc[n+](C)cc4)c4nc2C=C4)C=C3)cc1 = < 5 °C
3) N=C(N)c1ccc(/N=N/Nc2ccccc2C#Cc2ccc(F)cc2)cc1 = < 5 °C

// next entry
Write down ΔTm measured for item N=C(N)c1ccc(/N=N/Nc2ccc(C(=N)N)cc2)cc1 [DIMINAZENE] 6.8 °C

====

Assay: Antiproliferative activity against human OVCAR3 cells assessed as cell viability at 20 uM after 72 hrs by WST-1 assay relative to control
Type: functional
Details: OVCAR-3, 72 h, read-out: Activity
quantity_name: viability at 20 µM

1. N#Cc1ccc(N/N=N/c2ccc(C(=N)N)cc2)cc1 = ≥ 75%
2. N=C(N)c1ccc(/N=N/Nc2cccc(-c3ccccc3)c2)cc1 = ≥ 75%
3. Nc1cccc(C#Cc2ccc(F)cc2)c1 = ≥ 75%
4. N#Cc1cccc(N/N=N/c2ccc(C(=N)N)cc2)c1 = ≥ 75%
5. N=C(N)c1ccc(/N=N/Nc2ccccc2)cc1 = ≥ 75%

Return the recorded viability at 20 µM value; entry: N=C(N)c1ccc(N)cc1 ≥ 75%

Give the reported value of viability at 20 µM for this record: N=C(N)c1ccc(/N=N/Nc2ccncc2)cc1 ≥ 75%

====

Test: Antiproliferative activity against human PC3 cells after 72 hrs by WST-1 assay
Assay type: functional
Conditions: PC-3, 72 h
quantity_name: GI50 (µM)
// note: answer is a bare numeric in µM

1. N=C(N)c1ccc(/N=N/Nc2cccc(C#Cc3ccc(F)cc3)c2)cc1 = 5.3
2. N=C(N)c1ccc(/N=N/Nc2ccccc2C#Cc2ccc(F)cc2)cc1 = 7.4

Below: the item to evaluate.
Using the record for C[n+]1ccc(-c2c3nc(c(-c4cc[n+](C)cc4)c4ccc([nH]4)c(-c4cc[n+](C)cc4)c4nc(c(-c5cc[n+](C)cc5)c5ccc2[nH]5)C=C4)C=C3)cc1 , state its measured GI50. 14

====

Assay: Binding affinity to 5'-FAM/3'-TAMRA labeled c-MYC 22-mer G-quadruplex DNA (unknown origin) assessed as change in melting temperature at 4 uM after 12 hrs by TR-FRET assay
# ΔTm per record follows
Please format your answer as a value with the unit trailing.

1) C#Cc1ccccc1N/N=N/c1ccc(C(=N)N)cc1 = 7 °C
2) N=C(N)c1ccc(/N=N/Nc2cccc(-c3ccccc3)c2)cc1 = 8.8 °C
3) N=C(N)c1ccc(/N=N/Nc2ccccc2)cc1 = 7.1 °C
4) N=C(N)c1ccc(/N=N/Nc2cccc(C#Cc3ccccc3)c2)cc1 = 7.1 °C

Supply ΔTm value. Item: N=C(N)c1ccc(/N=N/Nc2ccccc2C#Cc2ccc(F)cc2)cc1 8.8 °C
